assay overview: NCI Yeast Anticancer Drug Screen. Data for the sgs1 mgt1 strain (AID 161);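 also: 0% = growth of cultures given vehicle only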
run conditions: S. cerevisiae sgs1 mgt1 strain, at 50.0 µM, active compounds read high
About 79,000 compounds went through this panel and 15% of them were active in at least one assay; those are over-represented in the sample as a whole.
So I've got a bunch of compounds here, and I need their growth inhibition values.
Answers are plain numbers, in %.

These solved cases illustrate the format of a correct answer.
compound	growth inhibition [%]
COc1nc(NC2OC(CO)C(O)C(O)C2O)c(C=O)c(=O)n1C (stereo unspecified)	-16.1
O=C(/C=C/c1ccccc1)NC(=S)Nc1ccc(F)c([N+](=O)[O-])c1	7.85
COC(c1ccccc1)c1ccccc1	29.5
CC1(C)C(N2CCOCC2)CS1(=O)=O (stereo unspecified)	-1.5
COC(=O)C1(CC(=O)c2ccccc2)NC(=S)NC(=O)C1C#N (stereo unspecified)	-24.4

For every item below, please supply its growth inhibition.
1. N/N=C1\C(=O)N(C2CCCCC2)C(=O)C1C(=O)NC1CCCCC1 (stereo unspecified)
2. Cc1cc(=O)[nH]c(N/N=C2/CCCCC2C)n1 (stereo unspecified)
3. CCC(O)(CC)c1ccc2ncccc2c1
4. Cc1c(C(=O)CC(=O)C(=O)Nc2ccc(Cl)cc2)[n+](=O)c2ccccc2n1[O-]
5. CC(C)(C)c1[nH]ncc1CCC(=O)Nc1ccc(Cl)cc1Cl
6. O=c1c2cc([N+](=O)[O-])ccc2c2ccc([N+](=O)[O-])cc2c(=O)n1-c1ccc2c(c1)Cc1ccccc1-2

A)
1. -15
2. -7.05
3. 7.7
4. 0.65
5. -5.85
6. -19.2

Each compound below has a reported value. Please supply its growth inhibition.
1. O=C1c2ccccc2-c2nc(/C=C/c3ccccc3)cc3c2c1nc1ccccc13
2. CC(C)NNC(=O)c1ccc(N)cc1
3. Cc1cccc(N2CCN(c3ccc4nonc4c3[N+](=O)[O-])CC2)c1
4. O=NN(CCCl)C(=O)NC1CCC(O)CC1 (stereo unspecified)

A)
1. 8.6
2. 4.55
3. -9.9
4. -24

Dear colleague, could you send me growth inhibition for each of the items below? Thanks.
1. O=C(O)C1CCC2CCCC21 (stereo unspecified)
2. COc1cc(C2OCC3C(c4ccc(O)c(OC)c4)OCC23)ccc1O (stereo unspecified)

A)
1: 8.95; 2: 10.9
